Experiment: MTT cell viability assay, Caco-2
Details: human, Caco-2, SI Caco-2 (selectivity index, cancer versus non-cancer cell line NHDF), Caco-2 versus NHDF, 72 h
For each record, check the reported selectivity ratio at 72 h: if it is below 3 write 1, else write -1.

Consider the worked cases shown below.
# input State whether 3 exceeds selectivity ratio at 72 h recorded for CN1C(=Cc2n(C)c3ccccc3[n+]2C)Sc2ccccc21.[I-] .
# output -1

# input What do you get for CCCCCN1C(=Cc2sc3ccccc3[n+]2C)Sc2ccccc21.[I-] ?
# output 1

# input What do you get for CCN1C(=Cc2n(CC)c3ccc([N+](=O)[O-])cc3[n+]2CC)Sc2ccccc21.[I-] ?
# output -1

# input What do you get for CCCCCCCCCCN1C(=Cc2sc3ccccc3[n+]2C)Sc2ccccc21.[I-] ?
# output 1

# input What do you get for CCN1C(=Cc2sc3ccc(N)cc3[n+]2CC)Sc2ccccc21 ?
# output 1

Continuing:
# input State whether 3 exceeds selectivity ratio at 72 h recorded for CN1C(=Cc2sc3ccccc3[n+]2C)C=Cc2ccccc21 .
# output 1

# input What do you get for CN1C(=Cc2oc3ccccc3[n+]2C)C=Cc2ccccc21.Cc1ccc(S(=O)(=O)[O-])cc1 ?
# output -1

# input What do you get for CCN1C(=Cc2sc3ccc(NC(C)=O)cc3[n+]2CC)Sc2ccccc21.Cc1ccc(S(=O)(=O)[O-])cc1 ?
# output -1

# input What do you get for CN1C(=Cc2sc3ccccc3[n+]2C)Oc2ccccc21.Cc1ccc(S(=O)(=O)[O-])cc1 ?
# output -1

# input What do you get for CCN1C(=Cc2sc3cc([N+](=O)[O-])ccc3[n+]2CC)Sc2ccccc21.Cc1ccc(S(=O)(=O)[O-])cc1 ?
# output -1

# input What do you get for CCN1C(=Cc2sc3cc(N)ccc3[n+]2CC)Sc2ccccc21.[I-] ?
# output -1
